- Tested on: NCI-H460 lung
Write down the outcome that applies. Available outcomes: true (1) for active, false (0) for inactive

Study these solved cases before continuing.
[[record]]
compound = "CCC1(OC(=O)CN)C(=O)OCc2c1cc1n(c2=O)Cc2cc3cc4c(cc3nc2-1)OCO4 (stereo unspecified)"
class_assignment = "true (1)"

[[record]]
compound = "Cn1cc(C2=C(c3cn(C)c4cc(N)ccc34)C(=O)NC2=O)c2ccccc21"
class_assignment = "false (0)"

[[record]]
compound = "CC(=O)c1cccc(-c2cccc(-c3ccn(CCN4CCOCC4)n3)c2)c1"
class_assignment = "false (0)"

[[record]]
compound = "CCCCN(CC)c1ncnc2ccc(Br)cc12"
class_assignment = "false (0)"

[[record]]
compound = "CC[C@]1(O)C[C@@H]2CN(CCc3c([nH]c4ccccc34)[C@@](C(=O)OC)(c3cc4c(cc3OC)N(C)[C@H]3[C@@](O)(C(N)=O)[C@H](O)[C@]5(CC)[C@@H]6C[C@@H]6CN6CC[C@]43[C@@H]65)C2)C1"
class_assignment = "true (1)"

[[record]]
compound = "CCCCNC(=O)Oc1ccc(/C(=C(/CC)Cc2ccccc2)c2ccc(OCCN3CCCCCC3)cc2)cc1"
class_assignment = "false (0)"


Now consider a different compound.
input: Dear colleague, could you share the recorded outcome for O=C(N/N=C/c1ccc(Cl)cc1)c1[nH]c2ccc(Cl)cc2c1-c1ccccc1 when you have a moment?
output: true (1)
